- test-target: T1, human PVRIG-his (AcroBiosystems, Cat NO. PVG-H52H4) (human, UniProt Q6DKI7 41-171, limits assumed)
- T1 construct: also called human PVRIG protein
- T1 sequence (looked up): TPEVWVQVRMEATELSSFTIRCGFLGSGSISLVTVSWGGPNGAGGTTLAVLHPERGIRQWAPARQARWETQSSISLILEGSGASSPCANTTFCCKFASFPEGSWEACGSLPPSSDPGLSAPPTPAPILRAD
- assay-text: SPR (BIAcore), antibody captured on Protein A chip, human PVRIG-His analyte
pKd: −log10 of the molar value.
measured-metric: pKd

binder	result
PVRIG-A104 (Fc fusion, heavy chain antibody VHH-hinge-CH2-CH3, human IgG1 constant part; not shown: human IgG1 hinge-CH2-CH3) EVQVVESGGGLVQAGGSLRLSCAASGRTRSMYVMGWFRQAPGKEREFVGRIKWSGDTTYTSYADFVKGRFTLYGNQARNTVYLQMNSLKPEDTAVYYCYRRSWTNTKLYWGKGIQVTVSS	10.56
PVRIG-A60 (Fc fusion, heavy chain antibody VHH-hinge-CH2-CH3, human IgG1 constant part; not shown: human IgG1 hinge-CH2-CH3) QVQLVESGGGLVQSGGSLRLSCAASGRTRSMYVMGWFRQAPGKEREFVGRIKWSGDTTYTSYADFVKGRFTLYGNQARNTVYLQMNSLKPEDAAVYYCNLRRLDGVNYWGKGTLVTVSS	9.55
PVRIG-A43 (Fc fusion, heavy chain antibody VHH-hinge-CH2-CH3, human IgG1 constant part; not shown: human IgG1 hinge-CH2-CH3) QVQLVESGGGLVQSGGSLRLSCAASGRTRSMYVMGWFRQAPGKEREFVGRIKWSGDTTYTSYADFVKGRFTLYGNQARNTVYLQMNSLKVEDTAVYYCAGRVVPLPSRQRDRYDYWGQGTQVTVSS	9.44
PVRIG-A118 (Fc fusion, heavy chain antibody VHH-hinge-CH2-CH3, human IgG1 constant part; not shown: human IgG1 hinge-CH2-CH3) QVQLVESGGGLVQAGGSLRLSCAASETYFDLYVMGWYRQAPGKDRELVATITYTGSIKIVDSVKDRFTISRGDAKNTVSLQMSSLKPEDTAVYFCNADPSGLGRKVYWGQGTQVTVSS	9.32
PVRIG-A35 (Fc fusion, heavy chain antibody VHH-hinge-CH2-CH3, human IgG1 constant part; not shown: human IgG1 hinge-CH2-CH3) EVQVVESGGGLVQSGGSLRLSCAASGRTRSMYVMGWFRQAPGKEREFVGRIKWSGDTTYTSYADFVKGRFTLYGNQARNTVYLQMNSLKPEDTAVYYCNGRSRFNVINAWGTGTLVTVAS	9.07
PVRIG-A15 (Fc fusion, heavy chain antibody VHH-hinge-CH2-CH3, human IgG1 constant part; not shown: human IgG1 hinge-CH2-CH3) QVQLVESGGGLVQAGGSLRLSCVASGRTFSANTMAWFRQAPGKEREFVAYTRWTDDNTDYASYADFVKGRFTAFRDNTRNTMYLQMNRLRPEDTAVYYCAAATTRGTYYSAGDYNSWGQGTQVTVSS	9.42
PVRIG-A113 (Fc fusion, heavy chain antibody VHH-hinge-CH2-CH3, human IgG1 constant part; not shown: human IgG1 hinge-CH2-CH3) QLQLVESGGGLVQSGGSLRLSCAASGRTRSMYVMGWFRQAPGKEREFVGRIKWSGDTTYTSYADFVKGRFTLYGNQARNTVYLQMNSLKPEDTAVYYCAALPSDYDYRAASYGVDYWGKGTLVTVSS	9.69
PVRIG-A30 (Fc fusion, heavy chain antibody VHH-hinge-CH2-CH3, human IgG1 constant part; not shown: human IgG1 hinge-CH2-CH3) QVQLVESGGGLVQPGGSLRLSCAASGRTDSMNVMGWFRRAPGKEREFVARIKWNGDTTYTAYADFLKGRFTLYGAVARNRVYLQMNSLQPEDTAVYYCAAGEVSGSSYSPDYGMHYWGKGTLVTVSS	9.39

Data provenance is patent US20240343803A1.
